protocol: protein stability index of a GFP-peptide fusion (yeast GPS) (PSI 1-4); higher = more stable; sorted into four equal gates, so the index is relative within each strain
condition-summary: ubr1∆
measure: protein stability index
Could you respond with only the numeric value?

Reported protein stability index, sequence LILQRLKDLNLTVSIKI [RGR1] : ____ 1.98

Same read-out for ITKDHKVLARQQLQVLA [FAS2] ? 1.3

Try this sequence next: SIGASIADLASLEQLLG [YCS4] 2.92

Queued: HIVQDCTLTADGAYALS [ASC1] 2.44

Query APEKDIWVGEWKEVLAH [RPO31] next 2.51

Would you kindly repeat that for GEFETKIAGIEGHLAEI [SRB2] ? 3.1

Now this one: EKIKDIHNTKLPAYSGE [POP1] 2.79

Next: HPGYDCWLSNIDIQTQD [RRI1] 3.16

Moving on to LVRELYQWRDLIARRDD [RRP6] 2.25

Next sequence: TTDDEEEPIKKLCYVLG [RET1] 3.46

Another sequence: QNNNTLGGGGLFGQSQQ [YGR119C/NUP57] 3.07

Ok, now FSDKVNALWILVDLVSH [ITC1] 1.27

Now this one: LSRPYKALKTNINFASG [CDC53] 2.66

Do the same for LVHDVVYDFYGRHVATC [YGL100W/SEH1] please 1.38

----------
protocol: protein stability index of a GFP-peptide fusion (yeast GPS) (PSI 1-4); higher = more stable; sorted into four equal gates, so the index is relative within each strain
condition-summary: doa10∆
measure: protein stability index
Number, no unit, nothing else.

For LLEKANNQQRLLLKKLD [SMC3] , what is its reported protein stability index? 2.31

Next up: QNIKAPSVKRQKMAELE [PRP8] 3.29

And then QSLNEMVKLIVMLCTLT [YJL039C/NUP192] , what is it? 2.52

Also, TMGEETAKKDMSSTTPK [SNF12] please. 2.58

Cool, now MSKIQVAHSSRLANLID [SMB1] 1.47

Now the same for TGTGLQDENIGLSMLAK [RPC31] 3.12

Same again, this time with KIVFILDSDSENDLSFA [RRI2] 2.52

Item: YSWLLFEASCMEGQKLD [YJR042W/NUP85] 1.09

Next record, please: MAREHAPSIIFMDEIDS [RPT6] 2.14

// same read-out, input: QAPSELELQVAKTFIDL [RPS7B] 3.06

Could you do the same for SDMENDNLLLNLEQINE [REC8] , please? 2.76

One more sequence: HGKRRSQVVETHKVTDI [YMR129W/POM152] 3.35

FTTLLESKQDGLSILFL [YML103C/NUP188] ? 2.53

Now give it for PLARNYIKSMDLISKKT [RPR2] too. 2.78

----------
protocol: protein stability index of a GFP-peptide fusion (yeast GPS) (PSI 1-4); higher = more stable; sorted into four equal gates, so the index is relative within each strain
condition-summary: ubr1∆
Record True whenever protein stability index is at 3 or higher; record False when lower.

Item TVHEMEEELKKLRDHEP [SMC4] with protein stability index of 3 or above? True

Lookup KSKERSSQFVRLASEPG [YMR129W/POM152] False

What do you get for QRGKWNLKYLDNSNVMT [RGR1] ? False

Let us now turn to LPYPTYWSDKKADTDTL [SNF5] False

Proceed to SKLSEHLNHYILLRYHH [YCG1] False

What about NPLADAEEALEPSYIFE [PRE4] ? True

Then HHYRPDMTTEEGLDLLK [PRE1] ? True

Next sequence: FDMTNHYNDSQQLRTWK [SRB8] False

What about KDRISSCSSKEKTLVLE [SMC4] ? False

Would you kindly repeat that for NMLLDPAANESEVANNG [RRP42] ? False

Param item: KPVKVALIFIFFAYFIG [YJL039C/NUP192] False

Queued: VPSYIHVEKERASTELS [YIL149C/MLP2] False

----------
protocol: protein stability index of a GFP-peptide fusion (yeast GPS) (PSI 1-4); higher = more stable; sorted into four equal gates, so the index is relative within each strain
condition-summary: doa10∆
Hi there, I'd appreciate the recorded protein stability index for every entry that follows.
Enter a number only.

Form field: reported protein stability index of LTLKHRQNKVQHQRIVA [RPN10] 1.54

How about RGPYLVIVPLSTLSNWS [SNF2] ? 1.84

How about this sequence: LISKPAKKNNFIEDLAP [UBP6] 2.54

Let us now turn to DEEASYKLGKVKKVQLG [RPS4A] 2.96

Same thing, different sequence: YTETDPAKVAEEGINKF [SRP54] 3.05

What about this sequence? PSLKDSSSNGGGSAKPS [RPC53] 2.91

Also QPASYHSVQETNKISPK [SSN2] , if possible. 3.34

Quick one: KLKRNSDRREHDEKLSD [LIN1] 3.51

Okay, and VHGKAPMLMANNDVFTI [SSN3] ? 2.79

Try the sequence LPTDGGLTSRLQRQQRK [POP4] 2.95

Record: QPPTNVQPTIGQLPQLP [SNF5] 3.14

Same thing, different sequence: GVEEEEELKDSEINEIL [SNF2] 3.14

Repeat for the following sequence: QELKLTCVAKKGIAKEH [RPB3] 3.09

Lookup MANLSQIYTQRAYMRPL [SCL1] 1.66

Then what about the sequence MAKFLKAGKVAVVVRGR [RPL27A] ? 1.53

Quick one: AEQSFDQQSPWLLRLEL [RPO21] 3

Would you mind doing FEHGRTPAEMSRPATTT [FAS2] as well? 2.72

Then RNFLETVELQVGLKNYD [RPL1A] ? 3.01

What would you report for RDVMCTDGVIGSRTTTN [RPO31] ? 3.2

Try this sequence too: MGQGLCNNINKGLKEND [BRR2] 3.13

Again, but for ERLVEFSNVNELQEKNV [YIL149C/MLP2] 3.31

Input KRKSAQEPELSLDQGDA [SMC4] 3.23

Please give the result for SFTNYITRSFKEPRLVI [RPS0A] too. 2.74

Also TLGKLSTSVGWKYEDVV [RPL16B] ? 2.82

Note, next up: GKMIELISGKAGVLNGT [RET1] 2.62

Please give the result for QTLSEKEYQCSAVIIDE [YIL149C/MLP2] too. 2.64

What do you have for DLNTRISVIETIRVVTE [RPN5] ? 1.64

Same question, FTIVSLVQLKKFSDLKF [YML103C/NUP188] this time 2.37

Would you kindly repeat that for EFTLFMDIAERIAVLHQ [YGL172W/NUP49] ? 2.77

Also SSNASFNNQGKLDLFKY [MED1] ? 2.93

----------
protocol: protein stability index of a GFP-peptide fusion (yeast GPS) (PSI 1-4); higher = more stable; sorted into four equal gates, so the index is relative within each strain
condition-summary: ubr1∆
# cutoff 3 applies to protein stability index; >= gives Satisfied, < gives Not satisfied

Threshold query (protein stability index >= 3) on AFHLHCINKWIKTRDAC [HRT1] Not satisfied

Try LTSNISSLVRSCGEEEF [REC8] next. Satisfied

Please give the result for DEFPSELSDSDRQIINE [SIR4] too. Not satisfied

Same for VQSQVDSSSVSEDSAVF [FAS1] Satisfied

Queued: IYKRGQAGVTKASVTIV [SMC2] Not satisfied

Let us now turn to YNSVAEAKKFEPTYRLV [RPS24A] Not satisfied

Lookup SDEKKDGDASKPAFSFG [YJL041W/NSP1] Satisfied

Also ATKAINGCIFTLNPKTG [PRP8] ? Not satisfied

Field entry: IIMQADLALKMGVPIYG [FAS2] Not satisfied

Follow-up entry: VLKSHSNDFEEGSTIRY [YMR129W/POM152] Not satisfied

Try the sequence KRLGPKRANNIRKFFGL [RPS6A] Satisfied

Repeat with YSKNNPNLLFSMCGFEV [PRP8] Not satisfied

Okay, and SNFADSADYEILYEIRA [YDL116W/NUP84] ? Not satisfied

Note, next up: RSYDLTRHQNTIHAKRK [RPN4] Not satisfied

Now try AHLYMLEPSGSYWGYKG [PRE10] . Not satisfied

PAFSFGAKPEEKKDDNS [YJL041W/NSP1] ? Satisfied

Check MVEGDSYVETLDSMIEL [MED1] too. Satisfied

Then LNNTHVISSGPLAAGNF [RPC53] ? Not satisfied

Could you do the same for IDMDKLNTVLIADLDTE [RRP43] , please? Satisfied

Please give the result for LQKRVIEHNLRVISEYY [RPN5] too. Not satisfied

Lookup PRGLNSARKLRVHRRNN [RPS23A] Not satisfied

Now consider DATRVFVNGVWHGVHRN [RPB2] and answer again. Satisfied
